# subject.of.test: Human TRPC6 (Homo sapiens)
# Construct: expressed in transfected cells
# Sequence (Q9Y210 1-931): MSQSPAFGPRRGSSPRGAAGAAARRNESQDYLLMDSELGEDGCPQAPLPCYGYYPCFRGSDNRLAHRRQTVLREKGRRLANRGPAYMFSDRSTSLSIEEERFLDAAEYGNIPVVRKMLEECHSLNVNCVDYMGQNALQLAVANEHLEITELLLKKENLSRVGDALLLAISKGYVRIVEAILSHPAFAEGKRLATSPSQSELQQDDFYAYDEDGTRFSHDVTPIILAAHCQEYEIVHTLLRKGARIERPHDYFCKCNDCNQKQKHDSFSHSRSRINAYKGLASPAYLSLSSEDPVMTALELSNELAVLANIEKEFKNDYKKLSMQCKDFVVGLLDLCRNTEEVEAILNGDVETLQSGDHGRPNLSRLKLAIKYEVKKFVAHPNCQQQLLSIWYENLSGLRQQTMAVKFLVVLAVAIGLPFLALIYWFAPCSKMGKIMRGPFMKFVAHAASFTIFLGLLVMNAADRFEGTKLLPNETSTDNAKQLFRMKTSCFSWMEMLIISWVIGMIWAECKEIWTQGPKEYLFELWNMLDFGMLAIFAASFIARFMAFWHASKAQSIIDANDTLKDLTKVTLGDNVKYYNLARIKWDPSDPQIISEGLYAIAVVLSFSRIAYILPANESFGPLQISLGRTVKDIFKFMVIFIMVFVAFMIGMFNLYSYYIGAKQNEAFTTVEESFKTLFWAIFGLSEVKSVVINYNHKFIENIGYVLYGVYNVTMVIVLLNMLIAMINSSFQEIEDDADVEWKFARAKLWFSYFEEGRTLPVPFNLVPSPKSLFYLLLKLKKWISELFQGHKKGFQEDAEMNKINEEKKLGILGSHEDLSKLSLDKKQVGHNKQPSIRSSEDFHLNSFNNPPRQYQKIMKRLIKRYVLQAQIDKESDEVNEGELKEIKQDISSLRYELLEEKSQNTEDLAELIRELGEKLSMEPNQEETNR
# protocol.text: Evaluation of TRPC6 channel inhibitory activity (1), FLIPR Calcium 5 Assay Kit, OAG stimulation (Compound Nos. 1-1293)
# Format: cell-based
# assay.context: Human TRPC6 stably-expressing cells, OAG 30 μM, FLIPR Calcium 5 Assay Kit; read-out: Inhibitory activity (pIC50 class) (converted)
Listing of entries alongside the reported IC50.

[
  {
    "compound": "N#Cc1ccc(-c2ncc(CCN)cn2)c([S+]([O-])c2cnnc(N3CCCCC3)c2)c1 (centres unmarked) [Compound No. 1276]",
    "IC50": "> 1 µM"
  },
  {
    "compound": "Cc1nc(OCC(F)(F)F)cc(Oc2cc(C#N)ccc2-c2ccc(CCN)cc2)n1 [Compound 35]",
    "IC50": "0.01 to 1 µM"
  },
  {
    "compound": "N#Cc1ccc(-c2ccc(CCN)cn2)c(C(=O)c2cnc(N3CCOCC3)o2)c1 [compound 1083]",
    "IC50": "0.01 to 1 µM"
  }
]

Query (compound): CC(C)Cc1nn(C)c(Oc2cc(C#N)ccc2-c2ccc(CCN)cc2)c1C(C)C [Compound 243] ; field requested: IC50
> 1 µM

Again, but for N#Cc1ccc(-c2ncc(CCN)cn2)c(Cn2cnc(-c3ccccc3)c2)c1 [compound 1135]
< 0.01 µM

Can you handle N#Cc1ccc(-c2ccc(CCN)cc2)c(Cn2cnc(-c3ccc(C(F)(F)F)cc3)c2)c1 [compound 1124] next?
> 1 µM

And what about the compound Cc1nc(N2CCOCC2)ccc1Oc1cc(C#N)ccc1-c1ncc(CCN)cn1 [compound 921] ?
> 1 µM

Same question, Cc1nc(Oc2cc(C#N)ccc2-c2ccc(C(O)CN)c(C(F)(F)F)c2)cc(N2CCOCC2)n1 (centres unmarked) [Compound 151] this time
0.01 to 1 µM

All figures here come from patent US20230167073A1.
